Target: Sodium-dependent serotonin transporter (Rattus norvegicus, UniProt P31652)
Sequence (P31652 whole entry): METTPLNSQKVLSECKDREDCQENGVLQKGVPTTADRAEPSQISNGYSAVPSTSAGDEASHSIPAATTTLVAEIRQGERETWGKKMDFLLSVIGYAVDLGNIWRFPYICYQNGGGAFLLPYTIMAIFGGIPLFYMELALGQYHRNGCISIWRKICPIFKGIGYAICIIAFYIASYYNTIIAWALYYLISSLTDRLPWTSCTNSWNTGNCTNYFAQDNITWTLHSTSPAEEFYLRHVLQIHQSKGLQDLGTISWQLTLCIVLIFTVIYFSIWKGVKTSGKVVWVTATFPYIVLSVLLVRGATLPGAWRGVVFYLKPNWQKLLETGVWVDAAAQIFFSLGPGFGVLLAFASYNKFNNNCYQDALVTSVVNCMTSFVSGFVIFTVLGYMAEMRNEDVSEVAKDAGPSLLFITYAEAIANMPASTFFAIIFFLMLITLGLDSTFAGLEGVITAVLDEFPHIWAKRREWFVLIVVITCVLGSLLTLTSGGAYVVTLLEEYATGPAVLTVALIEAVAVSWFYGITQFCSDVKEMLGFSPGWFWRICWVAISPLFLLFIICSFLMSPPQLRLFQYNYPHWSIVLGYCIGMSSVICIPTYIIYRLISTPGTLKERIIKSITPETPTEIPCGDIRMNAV
MEASURED_ATTRIBUTE: IC50
Report field: quantity (unit follows the number).

Recorded IC50 (compound CN(C)CC(c1ccccc1Cl)C1(O)CCCCC1 (stereo unspecified) ): 13 nM

====

Test: Half life in Sprague-Dawley rat at 30 mg/kg, po
Type: ADME, organism-based
Design: dose 30 mg/kg, route oral
Details: in vivo
MEASURED_ATTRIBUTE: half-life (h)
Express the result in h but write the number alone.

Recorded half-life (compound CN1CCN(C[C@H](c2cccc(OC(F)(F)F)c2)C2(O)CCCCC2)CC1.Cl.Cl ): 1.6

====

Target: Sodium-dependent dopamine transporter (Homo sapiens, UniProt Q01959)
Sequence (Q01959 whole entry): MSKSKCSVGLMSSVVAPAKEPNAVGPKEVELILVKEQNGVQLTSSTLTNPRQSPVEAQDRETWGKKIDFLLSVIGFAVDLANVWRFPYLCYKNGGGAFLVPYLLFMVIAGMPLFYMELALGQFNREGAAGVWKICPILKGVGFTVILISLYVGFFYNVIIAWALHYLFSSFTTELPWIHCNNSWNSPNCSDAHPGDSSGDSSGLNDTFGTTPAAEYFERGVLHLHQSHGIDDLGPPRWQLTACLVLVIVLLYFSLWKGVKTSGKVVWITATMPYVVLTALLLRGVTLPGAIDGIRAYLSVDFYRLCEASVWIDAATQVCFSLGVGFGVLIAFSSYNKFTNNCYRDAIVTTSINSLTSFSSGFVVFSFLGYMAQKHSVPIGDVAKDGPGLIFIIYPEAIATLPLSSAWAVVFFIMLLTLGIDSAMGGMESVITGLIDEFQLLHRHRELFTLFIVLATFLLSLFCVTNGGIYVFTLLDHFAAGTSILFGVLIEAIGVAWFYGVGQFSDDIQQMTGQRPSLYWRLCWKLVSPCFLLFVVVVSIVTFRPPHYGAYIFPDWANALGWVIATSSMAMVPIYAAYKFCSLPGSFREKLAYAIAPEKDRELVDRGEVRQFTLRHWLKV
Assay: Displacement of [3H]WIN-35428 from human recombinant dopamine transporter expressed in CHO cells at 1000 nM
Type: cell-based
Decide using Activity: a value greater than or equal to 6% is condition met, a smaller one is condition not met.

q: Please tell me: is the molecule OC1([C@H](CN2CCNCC2)c2cccc(OC(F)(F)F)c2)CCCCC1 at or over 6% in terms of Activity?
a: condition met

q: Please tell me: is the molecule CN1CCN(C[C@@H](c2cccc(OC(F)(F)F)c2)C2(O)CCCCC2)CC1 at or over 6% in terms of Activity?
a: condition not met

q: Please tell me: is the molecule CN(C)C[C@@H](c1cccc(Cl)c1)C1(O)CCCCC1 at or over 6% in terms of Activity?
a: condition met

q: Please tell me: is the molecule OC1(C(CN2CCNCC2)c2ccc(Cl)cc2)CCCCC1 (stereo unspecified) at or over 6% in terms of Activity?
a: condition met

q: Please tell me: is the molecule CN1CCN(CC(c2ccc(F)cc2)C2(O)CCCCC2)CC1 (stereo unspecified) at or over 6% in terms of Activity?
a: condition not met

q: Please tell me: is the molecule CN1CCN(CC(c2cccc(F)c2)C2(O)CCCCC2)CC1 (stereo unspecified) at or over 6% in terms of Activity?
a: condition met

q: Please tell me: is the molecule CN(C)C[C@H](c1cccc(Cl)c1)C1(O)CCCCC1 at or over 6% in terms of Activity?
a: condition not met

q: Please tell me: is the molecule COc1cccc(C(CN2CCNCC2)C2(O)CCCCC2)c1 (stereo unspecified) at or over 6% in terms of Activity?
a: condition not met

q: Please tell me: is the molecule COc1ccc(C(CN2CCN(C)CC2)C2(O)CCCCC2)cc1 (stereo unspecified) at or over 6% in terms of Activity?
a: condition not met

q: Please tell me: is the molecule CN1CCN(CC(c2cccc(OC(F)(F)F)c2)C2(O)CCCCC2)CC1 (stereo unspecified) at or over 6% in terms of Activity?
a: condition not met
